All values here come from patent US7301033B2.

target: human PPARδ (Homo sapiens); construct: with 137th to 441st amino acids of human PPARδ; expressed in transfected cells; host or cells: COS cells (African green monkey kidney); assay: Gal4-human PPARδ chimera luciferase transfection assay in COS cells; format: cell-based; conditions: compound added at 1 μM, luciferase activity with GW501516 1 μM given as 10.0, 16 hours
Sequence (Q03181 137-441): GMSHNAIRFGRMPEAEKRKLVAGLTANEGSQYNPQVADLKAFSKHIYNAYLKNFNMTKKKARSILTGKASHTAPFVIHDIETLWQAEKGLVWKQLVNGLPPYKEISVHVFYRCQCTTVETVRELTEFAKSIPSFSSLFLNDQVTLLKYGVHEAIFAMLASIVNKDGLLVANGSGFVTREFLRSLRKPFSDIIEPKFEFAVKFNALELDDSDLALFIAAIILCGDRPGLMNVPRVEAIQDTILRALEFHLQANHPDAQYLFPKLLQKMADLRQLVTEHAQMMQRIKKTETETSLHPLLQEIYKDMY
Assay Endpoint: hPPAR; Relative activity δ

Below: 4 compounds and their reported hPPAR; Relative activity δ.
{"Chemical Structure": "CN(CCCCCSc1ccccc1C(=O)O)c1nc2ccccc2o1", "hPPAR; Relative activity δ": 0.2}
{"Chemical Structure": "O=C(O)c1ccccc1SCCCCN(CCCc1ccccc1)c1nc2ccccc2o1", "hPPAR; Relative activity δ": 0.2}
{"Chemical Structure": "CCCCCCCCN(CCCOc1cccc(C(=O)O)c1)c1nc2ccccc2o1", "hPPAR; Relative activity δ": 0.2}
{"Chemical Structure": "CCCCCCN(CCCCSc1ccccc1C(=O)O)c1nc2ccccc2o1", "hPPAR; Relative activity δ": 0.4}

Now let's try a different one.
What hPPAR; Relative activity δ appears in the records for this compound with human PPARδ (Homo sapiens)? "CCCCCN(CCCCOc1cccc(C(=O)O)c1)c1nc2ccccc2o1" 0.3

====

biological target: human PPARδ (Homo sapiens); construct: with 137th to 441st amino acids of human PPARδ; expressed in transfected cells; host or cells: COS cells (African green monkey kidney); experiment: Gal4-human PPARδ chimera luciferase transfection assay in COS cells; format: cell-based; details: compound added at 1 μM, luciferase activity with GW501516 1 μM given as 10.0, 16 hours
Hi! Could you tag entries with hPPAR; Relative activity δ below 0.3 as yes, and those at or above as no? Much appreciated.

{"Chemical Structure": "CCCCCCCCN(CCCCSc1ccccc1C(=O)O)c1nc2ccccc2o1", "Assay System": "human PPARδ (Homo sapiens)", "Class": "no"}
{"Chemical Structure": "CN(CCCCSc1ccccc1C(=O)O)c1nc2ccccc2s1", "Assay System": "human PPARδ (Homo sapiens)", "Class": "yes"}
{"Chemical Structure": "CCCCCCCCN(CCSc1ccccc1C(=O)O)c1nc2ccccc2o1", "Assay System": "human PPARδ (Homo sapiens)", "Class": "yes"}
{"Chemical Structure": "CC(C)N(CCCCCSc1ccccc1C(=O)O)c1nc2ccccc2o1", "Assay System": "human PPARδ (Homo sapiens)", "Class": "yes"}
{"Chemical Structure": "CCCCCN(CCCCCSc1ccccc1C(=O)O)c1nc2ccccc2o1", "Assay System": "human PPARδ (Homo sapiens)", "Class": "no"}

Dear colleague, could you confirm whether hPPAR; Relative activity δ of "O=C(O)c1ccccc1SCCCCCN(CCCOc1ccccc1)c1nc2ccccc2o1" falls below 0.3? Thanks. no

====

Target: human PPARα (Homo sapiens)
Construct: 166th to 467th amino acids of human PPARα; expressed in transfected cells; host or cells: COS cells (African green monkey kidney)
Sequence (Q07869 166-467): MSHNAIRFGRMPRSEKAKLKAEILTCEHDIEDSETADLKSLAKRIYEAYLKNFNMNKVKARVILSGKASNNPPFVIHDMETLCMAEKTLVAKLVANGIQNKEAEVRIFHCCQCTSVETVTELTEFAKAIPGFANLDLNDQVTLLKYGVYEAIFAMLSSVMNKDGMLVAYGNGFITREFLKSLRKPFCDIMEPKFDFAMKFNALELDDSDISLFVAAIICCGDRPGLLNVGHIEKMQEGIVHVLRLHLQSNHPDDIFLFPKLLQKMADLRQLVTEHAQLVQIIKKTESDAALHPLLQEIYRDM
Assay: Gal4-human PPARα chimera luciferase transfection assay in COS cells
Type: cell-based
Conditions: compound added at 1 μM, luciferase activity with WY14643 10 μM given as 10.0, 16 hours
Assay Endpoint: hPPAR; Relative activity α
Output: the number by itself.

Entry CCCCCCCCN(CCSc1ccccc1C(=O)O)c1nc2ccccc2o1 [Example 78] has what hPPAR; Relative activity α? 20.8

Input Cc1c(CN(CCSc2ccccc2C(=O)O)c2nc3ccccc3o2)cccc1[N+](=O)[O-] [Example 73] 11.2

Input O=C(O)c1cccc(OCCCCN(CCOc2ccc(Cl)cc2)c2nc3ccccc3o2)c1 [Example 45] 12.3

Input CCCCCCCN(CCCCOc1cccc(C(=O)O)c1)c1nc2ccccc2o1 [Example 46] 16.5

Input O=C(O)c1ccccc1SCCCCCN(CCCOc1ccccc1)c1nc2ccccc2o1 [Example 105] 25.3

Input O=C(O)c1cccc(OCCCN(CCOc2ccc(Cl)cc2)c2nc3ccccc3o2)c1 [Example 6] 17.3

Input O=C(O)c1ccccc1SCCN(CCCOc1ccccc1)c1nc2ccccc2o1 [Example 80] 17.8

Input CCCCCN(CCCCOc1cccc(C(=O)O)c1)c1nc2ccccc2o1 [Example 47] 10.4
